Every entry's value here was drawn from ChEMBL document CHEMBL1130739.

- Target under test: Dihydroorotate dehydrogenase (quinone), mitochondrial (Homo sapiens, UniProt Q02127)
- Sequence (Q02127 whole entry): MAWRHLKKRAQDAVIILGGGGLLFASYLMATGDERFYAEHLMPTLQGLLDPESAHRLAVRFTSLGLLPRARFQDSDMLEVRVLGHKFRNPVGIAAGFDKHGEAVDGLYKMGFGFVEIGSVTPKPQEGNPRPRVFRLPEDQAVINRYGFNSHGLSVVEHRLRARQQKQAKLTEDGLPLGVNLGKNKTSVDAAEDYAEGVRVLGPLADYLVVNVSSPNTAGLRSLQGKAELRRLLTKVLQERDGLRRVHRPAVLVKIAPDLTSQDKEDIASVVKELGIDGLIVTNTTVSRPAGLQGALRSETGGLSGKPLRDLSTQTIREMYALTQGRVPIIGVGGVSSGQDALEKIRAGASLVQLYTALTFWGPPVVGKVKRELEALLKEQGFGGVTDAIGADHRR
- Measurement protocol: Inhibition of human recombinant dihydroorotate dehydrogenase (DHODase)
Observed property: log10 Ki (log10 of the value in nM)
Heads up: the numbers are on a log10 scale; they represent Ki in nM.

Compound	log10 Ki
O=C(O)c1c2c(nc3ccc(F)cc13)-c1ccc(-c3ccccc3)cc1CC2	0.92

Recorded log10 Ki (compound "O=C(O)c1c2c(nc3ccc(F)cc13)-c1cccc(-c3ccccc3)c1CC2" ): 2.48

The value of log10 Ki measured for the compound O=C(O)c1c2c(nc3ccc(F)cc13)-c1ccc(-c3ccccc3)cc1[S+]([O-])C2 (stereo not given) turned out to be 2.31

log10 Ki measured on "COc1ccc(-c2ccc3c(c2)CCc2c-3nc3ccc(F)cc3c2C(=O)O)cc1" = 1.74

The reported log10 Ki of the compound "Cc1cccc(-c2ccc3c(c2)CSc2c-3nc3ccc(F)cc3c2C(=O)O)c1" was 2.13
